Target: UniProt:P10632
Sequence (P10632 whole entry): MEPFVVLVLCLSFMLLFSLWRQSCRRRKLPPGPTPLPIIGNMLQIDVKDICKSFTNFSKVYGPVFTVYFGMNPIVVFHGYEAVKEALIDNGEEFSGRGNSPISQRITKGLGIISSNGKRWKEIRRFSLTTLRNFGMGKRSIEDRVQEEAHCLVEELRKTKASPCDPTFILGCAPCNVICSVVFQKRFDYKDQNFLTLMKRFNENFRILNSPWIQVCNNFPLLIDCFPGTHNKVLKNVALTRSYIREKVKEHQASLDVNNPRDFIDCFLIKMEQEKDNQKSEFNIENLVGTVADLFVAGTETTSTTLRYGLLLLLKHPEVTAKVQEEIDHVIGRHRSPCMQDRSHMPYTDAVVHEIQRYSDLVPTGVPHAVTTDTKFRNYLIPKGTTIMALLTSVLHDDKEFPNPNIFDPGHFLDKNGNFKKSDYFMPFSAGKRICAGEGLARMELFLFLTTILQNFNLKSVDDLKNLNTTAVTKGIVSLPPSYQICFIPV
Test: CYP2C8 inhibition in pooled human liver microsomes
Type: in vitro ADME
Conditions: both sexes, human, pooled human liver microsomes, probe amodiaquine; Amodiaquine N-dealkylation; zero-minute preincubation; 49.5 µM; read-out: Direct inhibition, maximum inhibition at 49.5 µM
Protocol: The potential of tepotinib and MSC2571109A to inhibit CYP450 enzymes CYP1A2, 2A6, 2B6, 2C8, 2C9, 2C19, 2D6, 2E1, and 3A4/5 in vitro was evaluated using CYP-catalyzed reactions in pooled mixed-gender human liver microsomes using specific substrates and liquid chromatography/tandem mass spectrometry (LC–MS/MS) readouts. […] Testosterone 6β-hydroxylation was assessed in the MSC2571109A study. […]
test.readout: inhibition at 49.5 µM (%)
Numeric only. Scale: %

What does the data say about its inhibition at 49.5 µM? Entry: CN1CCC(COc2cnc(-c3cccc(Cn4nc(-c5cccc(C#N)c5)ccc4=O)c3)nc2)CC1
86
